test: in vivo; set-up: species or system BALB/c nu/nu female mice; conditions: female, BALB/c nu/nu, mouse, iv, 40 pmol, total radioactivity, Lungs uptake

Compound	tissue uptake at 4 h (%ID/g)
CCNC(=O)[C@H](CC(C)C)NC(=O)[C@H](Cc1c[nH]cn1)NC(=O)CN(C)C(=O)[C@@H](NC(=O)[C@H](C)NC(=O)[C@H](Cc1c[nH]c2ccccc12)NC(=O)[C@H](CCC(N)=O)NC(=O)[C@@H](Cc1ccccc1)NC(=O)COCC(=O)Nc1ccc(CNC(=O)CCC(C(=O)O)N2CCN(CC(=O)O)CCN(CC(=O)O)CCN(CC(=O)O)CC2)cc1)C(C)C (stereo partly drawn) [[^111In]In-AU-SAR-M1, metal not drawn]	0.2
CCNC(=O)[C@H](CC(C)C)NC(=O)[C@H](Cc1c[nH]cn1)NC(=O)CN(C)C(=O)[C@@H](NC(=O)[C@H](C)NC(=O)[C@H](Cc1c[nH]c2ccccc12)NC(=O)[C@H](CCC(N)=O)NC(=O)[C@@H](Cc1ccccc1)NC(=O)COCC(=O)Nc1ccc(CNC(=O)[C@H](CCCNC(=N)N)NC(=O)CCC(C(=O)O)N2CCN(CC(=O)O)CCN(CC(=O)O)CCN(CC(=O)O)CC2)cc1)C(C)C (stereo partly drawn) [[^111In]In-AU-SAR-M2, [^111In]In-[DOTAGA-Arg]AU-SAR-M1, metal not drawn]	0.2
CCNC(=O)[C@H](CC(C)C)NC(=O)[C@H](Cc1c[nH]cn1)NC(=O)CN(C)C(=O)[C@@H](NC(=O)[C@H](C)NC(=O)[C@H](Cc1c[nH]c2ccccc12)NC(=O)[C@H](CCC(N)=O)NC(=O)[C@@H](Cc1ccccc1)NC(=O)COCC(=O)Nc1ccc(CNC(=O)[C@@H](CCCNC(=N)N)NC(=O)CCC(C(=O)O)N2CCN(CC(=O)O)CCN(CC(=O)O)CCN(CC(=O)O)CC2)cc1)C(C)C (stereo partly drawn) [[^111In]In-AU-SAR-M3, [^111In]In-[DOTAGA-DArg]AU-SAR-M1, metal not drawn]	0.15
